Entries annotated with measured log10 MIC
tested on: S. marcescens 5805; test: In vitro antibacterial activity (MIC); assay type: cell-based; details: Serratia marcescens, 5805, S. marcescens 5805; read-out: MIC
Where a name gives a salt, the structure may show the parent alone.
ASSAY ENDPOINT: log10 MIC (log10 of the value in µg/mL)

1. CC1(C)S[C@@H]2[C@H](N=CN3CCC(CCCn4ccnc4[N+](=O)[O-])CC3)C(=O)N2[C@H]1C(=O)O [K, hydrate]: 0.90
2. CC1(C)S[C@@H]2[C@H](N=CN3CCC(CCCn4ccnc4)CC3)C(=O)N2[C@H]1C(=O)O [C, hydrochloride monohydrate]: 1.51
3. Cc1nc(C)n(CCCC2CCN(C=N[C@@H]3C(=O)N4[C@@H]3SC(C)(C)[C@@H]4C(=O)O)CC2)c1C [E, hydrate hydrochloride]: -0.30
4. CC1(C)S[C@@H]2[C@H](N=CN3CCC(C4=NCCN4)CC3)C(=O)N2[C@H]1C(=O)O [L, hydrochloride]: 0.90
5. CC1(C)S[C@@H]2[C@H](N=CN3CCC(CC4=NCCN4)CC3)C(=O)N2[C@H]1C(=O)O [M, hydrochloride]: 0.00
6. CC1(C)S[C@@H]2[C@H](N=CN3CCC(CCCn4ccnc4CO)CC3)C(=O)N2[C@H]1C(=O)O [R, hydrate]: 0.00
7. CC1(C)S[C@@H]2[C@H](N=CN3CCC(CCn4ccnc4)CC3)C(=O)N2[C@H]1C(=O)O [B, hydrate hydrochloride]: 0.00
8. CC1(C)S[C@@H]2[C@H](N=CN3CCC(Cn4ccnc4CN)CC3)C(=O)N2[C@H]1C(=O)O [J, hydrochloride]: 0.00
9. CC1(C)S[C@@H]2[C@H](N=CN3CCC(Cn4ccnc4N)CC3)C(=O)N2[C@H]1C(=O)O [H, hydrochloride]: -0.30
10. CC1(C)S[C@@H]2[C@H](N=CN3CCCC(c4ncc[nH]4)C3)C(=O)N2[C@H]1C(=O)O (some centres unmarked) [P, hydrochloride]: 2.11
11. CC1(C)S[C@@H]2[C@H](N=CN3CCC(Cn4ccnc4)CC3)C(=O)N2[C@H]1C(=O)O [Compound A]: 0.00
12. CN(C)C=Nc1nccn1CCCC1CCN(C=N[C@@H]2C(=O)N3[C@@H]2SC(C)(C)[C@@H]3C(=O)O)CC1 [S, hydrate]: 0.60
13. CC1(C)S[C@@H]2[C@H](N=CN3CCC(c4ncc[nH]4)CC3)C(=O)N2[C@H]1C(=O)O [O, hydrochloride trihydrate]: 0.90
14. Cc1nccn1CCCC1CCN(C=N[C@@H]2C(=O)N3[C@@H]2SC(C)(C)[C@@H]3C(=O)O)CC1 [F, hydrate]: -0.30
15. CCc1nc(C)cn1CCCC1CCN(C=N[C@@H]2C(=O)N3[C@@H]2SC(C)(C)[C@@H]3C(=O)O)CC1 [G, hydrochloride]: 0.60
16. CC1(C)S[C@@H]2[C@H](N=CN3CCC(CCCn4ccnc4N)CC3)C(=O)N2[C@H]1C(=O)O [I, hydrochloride]: -0.60
17. CC1(C)S[C@@H]2[C@H](N=CN3CCC(Cc4ncc[nH]4)CC3)C(=O)N2[C@H]1C(=O)O [Q, hydrochloride]: 0.00

* * *

test system: P. aeruginosa 8710; assay: In vitro antibacterial activity (MIC); format: cell-based; settings: Pseudomonas aeruginosa; P. aeruginosa 8710; read-out: MIC
Counter-ions that a name gives are not always drawn.
Entries annotated with measured MIC
ASSAY ENDPOINT: MIC (µg/mL)

1) CC1(C)S[C@@H]2[C@H](N=CN3CCC(Cn4ccnc4N)CC3)C(=O)N2[C@H]1C(=O)O [H, hydrochloride]: 128
2) CC1(C)S[C@@H]2[C@H](N=CN3CCC(CC4=NCCN4)CC3)C(=O)N2[C@H]1C(=O)O [M, hydrochloride]: 64
3) CC1(C)S[C@@H]2[C@H](N=CN3CCC(C4=NCCN4)CC3)C(=O)N2[C@H]1C(=O)O [L, hydrochloride]: 128

* * *

test system: S. marcescens S714; experiment: In vitro antibacterial activity (MIC); assay type: cell-based; details: Serratia marcescens, S714, S. marcescens S714; read-out: MIC
Where a name gives a salt, the structure may show the parent alone.
Entries annotated with measured MIC
ASSAY ENDPOINT: MIC (µg/mL)

1. CC1(C)S[C@@H]2[C@H](N=CN3CCC(Cn4ccnc4)CC3)C(=O)N2[C@H]1C(=O)O: 1
2. CC1(C)S[C@@H]2[C@H](N=CN3CCC(CC4=NCCN4)CC3)C(=O)N2[C@H]1C(=O)O [M, hydrochloride]: 0.5
3. CC1(C)S[C@@H]2[C@H](N=CN3CCC(Cc4ncc[nH]4)CC3)C(=O)N2[C@H]1C(=O)O [Q, hydrochloride]: 0.25
4. CC1(C)S[C@@H]2[C@H](N=CN3CCC(Cn4ccnc4CN)CC3)C(=O)N2[C@H]1C(=O)O [J, hydrochloride]: 0.5
5. CC1(C)S[C@@H]2[C@H](N=CN3CCC(Cn4ccnc4N)CC3)C(=O)N2[C@H]1C(=O)O [H, hydrochloride]: 0.25
6. CC1(C)S[C@@H]2[C@H](N=CN3CCC(CCCn4ccnc4[N+](=O)[O-])CC3)C(=O)N2[C@H]1C(=O)O [K, hydrate]: 8
7. CC1(C)S[C@@H]2[C@H](N=CN3CCC(CCC4=NCCN4)CC3)C(=O)N2[C@H]1C(=O)O [N, hydrochloride]: 0.125
8. CCc1nc(C)cn1CCCC1CCN(C=N[C@@H]2C(=O)N3[C@@H]2SC(C)(C)[C@@H]3C(=O)O)CC1 [G, hydrochloride]: 8
9. CC1(C)S[C@@H]2[C@H](N=CN3CCC(CCCn4ccnc4CO)CC3)C(=O)N2[C@H]1C(=O)O [R, hydrate]: 1
10. Cc1nccn1CCCC1CCN(C=N[C@@H]2C(=O)N3[C@@H]2SC(C)(C)[C@@H]3C(=O)O)CC1 [F, hydrate]: 1
11. CC1(C)S[C@@H]2[C@H](N=CN3CCC(CCCn4ccnc4)CC3)C(=O)N2[C@H]1C(=O)O [C, hydrochloride monohydrate]: 32
12. CC1(C)S[C@@H]2[C@H](N=CN3CCC(c4ncc[nH]4)CC3)C(=O)N2[C@H]1C(=O)O [O, hydrochloride trihydrate]: 1
13. CC1(C)S[C@@H]2[C@H](N=CN3CCC(CCn4ccnc4)CC3)C(=O)N2[C@H]1C(=O)O [B, hydrate hydrochloride]: 1

* * *

test system: S. faecalis C1; assay: In vitro antibacterial activity (MIC); assay type: cell-based; conditions: Enterococcus faecalis; S. faecalis C1; read-out: MIC
Structures can show the parent of a compound that is named as a salt.
Entries annotated with measured MIC
ASSAY ENDPOINT: MIC (µg/mL)

1) CC1(C)S[C@@H]2[C@H](N=CN3CCC(Cn4ccnc4)CC3)C(=O)N2[C@H]1C(=O)O [Compound A]: 128
2) CC1(C)S[C@@H]2[C@H](N=CN3CCC(c4ncc[nH]4)CC3)C(=O)N2[C@H]1C(=O)O [O, hydrochloride trihydrate]: 32
3) Cc1nc(C)n(CCCC2CCN(C=N[C@@H]3C(=O)N4[C@@H]3SC(C)(C)[C@@H]4C(=O)O)CC2)c1C [E, hydrate hydrochloride]: 128
4) CC1(C)S[C@@H]2[C@H](N=CN3CCC(CC4=NCCN4)CC3)C(=O)N2[C@H]1C(=O)O [M, hydrochloride]: 32
5) CCc1nc(C)cn1CCCC1CCN(C=N[C@@H]2C(=O)N3[C@@H]2SC(C)(C)[C@@H]3C(=O)O)CC1 [G, hydrochloride]: 128

* * *

system: S. marcescens S4; assay: In vitro antibacterial activity (MIC); assay type: cell-based; conditions: Serratia marcescens, S4, S. marcescens S4; read-out: MIC
Counter-ions that a name gives are not always drawn.
ASSAY ENDPOINT: MIC

1) CCc1nc(C)cn1CCCC1CCN(C=N[C@@H]2C(=O)N3[C@@H]2SC(C)(C)[C@@H]3C(=O)O)CC1 [G, hydrochloride]: 2 µg/mL
2) CC1(C)S[C@@H]2[C@H](N=CN3CCC(Cn4ccnc4)CC3)C(=O)N2[C@H]1C(=O)O: 1 µg/mL
3) CC1(C)S[C@@H]2[C@H](N=CN3CCC(CCn4ccnc4)CC3)C(=O)N2[C@H]1C(=O)O [B, hydrate hydrochloride]: 1 µg/mL
4) CC1(C)S[C@@H]2[C@H](N=CN3CCC(CCCn4ccnc4N)CC3)C(=O)N2[C@H]1C(=O)O [I, hydrochloride]: 0.25 µg/mL
5) CN(C)C=Nc1nccn1CCCC1CCN(C=N[C@@H]2C(=O)N3[C@@H]2SC(C)(C)[C@@H]3C(=O)O)CC1 [S, hydrate]: 4 µg/mL
6) CC1(C)S[C@@H]2[C@H](/N=C/N3CCCCCC3)C(=O)N2[C@H]1C(=O)O [Amdinocillin, amdinocillin, reference compound]: 1 µg/mL
7) CC1(C)S[C@@H]2[C@H](N=CN3CCC(CCCn4ccnc4[N+](=O)[O-])CC3)C(=O)N2[C@H]1C(=O)O [K, hydrate]: 8 µg/mL
8) Cc1nc(C)n(CCCC2CCN(C=N[C@@H]3C(=O)N4[C@@H]3SC(C)(C)[C@@H]4C(=O)O)CC2)c1C [E, hydrate hydrochloride]: 0.5 µg/mL
9) Cc1nccn1CCCC1CCN(C=N[C@@H]2C(=O)N3[C@@H]2SC(C)(C)[C@@H]3C(=O)O)CC1 [F, hydrate]: 2 µg/mL
10) CC1(C)S[C@@H]2[C@H](N=CN3CCC(Cn4ccnc4CN)CC3)C(=O)N2[C@H]1C(=O)O [J, hydrochloride]: 1 µg/mL
11) CC1(C)S[C@@H]2[C@H](N=CN3CCC(Cn4ccnc4N)CC3)C(=O)N2[C@H]1C(=O)O [H, hydrochloride]: 0.5 µg/mL
12) CC1(C)S[C@@H]2[C@H](N=CN3CCC(CC4=NCCN4)CC3)C(=O)N2[C@H]1C(=O)O [M, hydrochloride]: 1 µg/mL
13) CC1(C)S[C@@H]2[C@H](N=CN3CCCC(c4ncc[nH]4)C3)C(=O)N2[C@H]1C(=O)O (some centres unmarked) [P, hydrochloride]: > 128 µg/mL
14) CC1(C)S[C@@H]2[C@H](N=CN3CCC(CCCn4ccnc4CO)CC3)C(=O)N2[C@H]1C(=O)O [R, hydrate]: 0.5 µg/mL
